Target: Cyclin-dependent kinase 5/CDK5 activator 1 (Homo sapiens)
Catalogue of IC50 values

# compound-structure-string, IC50 / nM
records = [
    ("CC(=O)Nc1sc2c(c1Cc1nnc(SCC(=O)NN)n1NC(=O)c1ccccc1)CCCC2", 192),
    ("CC(=O)Nc1sc2c(c1Cc1nnc(SCc3n[nH]c(=S)n3N)n1NC(C)=O)CCCC2", 5150),
    ("CC(=O)NNC(=O)CSc1nnc(Cc2c(NC(=O)c3ccccc3)sc3c2CCCC3)n1NC(=O)c1ccccc1", 564),
    ("CC(=O)Nn1c(Cc2c(NCCC(=O)O)sc3c2CCCC3)nnc1SCC#N", 641),
    ("COC(=O)CSc1nnc(Cc2c(NC(=O)c3ccccc3)sc3c2CCCC3)n1NC(=O)c1ccccc1", 353),
    ("O=C(O)CCNc1sc2c(c1CC(=O)NNC(=S)[S-])CCCC2.[K+]", 397),
    ("CC(=O)Nc1sc2c(c1Cc1nnc(SCC(=O)NNC(=O)c3ccccc3)n1NC(C)=O)CCCC2", 436),
    ("O=C(Nc1sc2c(c1Cc1nnc(SCSc3nnc(Cc4c(NC(=O)c5ccccc5)sc5c4CCCC5)n3NC(=O)c3ccccc3)n1NC(=O)c1ccccc1)CCCC2)c1ccccc1", 695),
]

----------
Reported IC50 by item:
Molecular target: Cyclin-dependent kinase 5/CDK5 activator 1 (Homo sapiens, UniProt Q00535)
Sequence (Q00535 whole entry): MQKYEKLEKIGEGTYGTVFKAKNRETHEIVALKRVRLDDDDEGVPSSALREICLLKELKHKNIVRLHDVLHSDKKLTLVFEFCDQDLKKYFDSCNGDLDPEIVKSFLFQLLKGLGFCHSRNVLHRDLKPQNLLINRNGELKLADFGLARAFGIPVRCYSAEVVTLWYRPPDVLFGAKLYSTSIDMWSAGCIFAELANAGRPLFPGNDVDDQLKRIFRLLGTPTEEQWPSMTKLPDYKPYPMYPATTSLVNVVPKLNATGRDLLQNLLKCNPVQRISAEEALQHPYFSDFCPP
Sequence (Q15078 whole entry, further chain): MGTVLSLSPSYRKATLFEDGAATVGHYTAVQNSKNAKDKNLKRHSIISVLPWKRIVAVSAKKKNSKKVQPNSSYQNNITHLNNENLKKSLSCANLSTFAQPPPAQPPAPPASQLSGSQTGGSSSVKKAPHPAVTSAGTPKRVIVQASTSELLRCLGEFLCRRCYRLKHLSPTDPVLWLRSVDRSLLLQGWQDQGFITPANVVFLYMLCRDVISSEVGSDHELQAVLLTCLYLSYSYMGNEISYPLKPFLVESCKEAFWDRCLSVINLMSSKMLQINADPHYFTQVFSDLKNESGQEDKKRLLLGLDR
Assay type: protein-complex assay

# compound-structure-string, value-unit, IC50
data = [
    ("NNC(=O)CSc1nnc(Cc2c(NC(=O)c3ccccc3)sc3c2CCCC3)n1NC(=O)c1ccc(Cl)cc1", "nM", 236),
    ("Nn1c(S)nnc1CSc1nnc(Cc2c(NCCC(=O)O)sc3c2CCCC3)n1NC(=O)c1ccc(Cl)cc1", "nM", 5850),
    ("CC(=O)Nn1c(Cc2c(NC(=O)c3ccccc3)sc3c2CCCC3)nnc1SCC(=O)NNC(=O)CCl", "nM", 358),
    ("NNC(=O)CSc1nnc(Cc2c(NC(=O)CCl)sc3c2CCCC3)n1NC(=O)c1ccccc1", "nM", 37),
]

----------
Target: Cyclin-dependent kinase 5/CDK5 activator 1 (Homo sapiens, UniProt Q00535)
Format: protein-complex assay
pIC50: −log10 of the molar value.
So basically: pIC50 at 6 or higher? That is yes. Lower than 6? That is no.

# compound-structure-string, class-assignment
rows = [
    ("CC(=O)Nc1sc2c(c1Cc1n[nH]c(=S)n1NC(=O)c1ccccc1)CCCC2", "yes"),
    ("CC(=O)Nc1sc2c(c1Cc1nnc(SCc3n[nH]c(=S)n3N)n1NC(=O)c1ccccc1)CCCC2", "no"),
    ("O=C(CCl)NNC(=O)CSc1nnc(Cc2c(NC(=O)CCl)sc3c2CCCC3)n1NC(=O)c1ccccc1", "yes"),
    ("CC(=O)Nn1c(Cc2c(NCCC(=O)O)sc3c2CCCC3)n[nH]c1=S", "yes"),
    ("CC(=O)NNC(=O)CSc1nnc(Cc2c(NC(=O)CCl)sc3c2CCCC3)n1NC(=O)c1ccccc1", "yes"),
    ("O=C(CCl)NNC(=O)CSc1nnc(Cc2c(NC(=O)c3ccccc3)sc3c2CCCC3)n1NC(=O)c1ccc(Cl)cc1", "yes"),
]

Taken from ChEMBL document CHEMBL1795325.
